# TEST SUMMARY: Plasma concentration in C57BL/6 mouse at 40 mg/kg,IG measured after 6 hrs by HPLC analysis
# Assay type: ADME, organism-based
# STUDY CONDITIONS: po
MEASURED QUANTITY: concentration at 6 h (ng/mL)
Use ng/mL as the unit, but write only the number.

What concentration at 6 h value was documented for this compound, O=C(Nc1scc(-c2ccc(Cl)cc2)c1C(=O)O)c1cc(F)ccc1F ?
24300

====

# TEST SUMMARY: Cmax in C57BL/6 mouse at 40 mg/kg,iv measured upto 24 hrs by HPLC-MS/MS analysis
# Assay type: ADME, organism-based
# Design: time < 24 hrs, dose 40 mg/kg, route iv
# STUDY CONDITIONS: in vivo
MEASURED QUANTITY: Cmax (µg/mL)
Use µg/mL as the unit, but write only the number.

What Cmax value was documented for this molecule, O=C(Nc1scc(-c2ccc(Cl)cc2)c1C(=O)O)c1cc(F)ccc1F ?
183

Every entry's value here was drawn from ChEMBL document CHEMBL5120859.
